Overview of reported Soluble trimeric huBAFF (52 pM) Neutralization IC90 across a group of binders:
- TESTED_SYSTEM: Recombinant soluble trimeric human BAFF (furin-cleaved human BAFF 134-285) (human, UniProt Q9Y275 134-285)
- MEASUREMENT_DESCRIPTION: cell-based or functional assay
Value expressed in pM; do not type the unit.

Worked cases, answers included:
{"BINDER": "217H12A7 (antibody, V domains shown, Mouse lead antibody (hybridoma)) VH: QVQLQQPGAELVKPGASVKLSCKASGYTFSTFLIHWVQQRPGRGLEWIGRIDPNSGGTKYNEKFERKVTLTVDKPSSTAYMQLSSLTSEDSAVYYCARGEDLLLRTDAMDYWGQGTSVTVSS VL: DIVMTQSQKFMSTTVGDRVSITCKASQNAGTAVAWFQQKPGQSPKLLIYSAFNRYTGVPDRFTGSGSGTDFTLTISNMQSEDLADYICQQYRSYPRTFGGGTKLEIK", "UNIT_SYMBOL": "pM", "READING": 129}
{"BINDER": "Reference 1 (antibody, human IgG4 S228P, kappa, V domains shown, Comparator anti-BAFF antibody) VH: QVQLQQWGAGLLKPSETLSLTCAVYGGSFSGYYWSWIRQPPGKGLEWIGEINHSGSTNYNPSLKSRVTISVDTSKNQFSLKLSSVTAADTAVYYCARGYYDILTGYYYYFDYWGQGTLVTVSS VL: EIVLTQSPATLSLSPGERATLSCRASQSVSRYLAWYQQKPGQAPRLLIYDASNRATGIPARFSGSGSGTDSTLTISSLEPEDFAVYYCQQRSNWPRTFGQGTKVEIKR", "UNIT_SYMBOL": "pM", "READING": 290}

**Query** Quick one: Soluble trimeric huBAFF (52 pM) Neutralization IC90 of 13J018-1A4 (antibody, V domains shown, Mouse lead antibody (hybridoma)) VH: QVQLQQSGPEVVRPGASVKISCKAPDHIFSIHWMQWVRQRPGPGLEWIGEIFPGSGTTDYNEKFKGKATVTVDRGSRSAYMQFNSLTSEDSAVYFCASGAFDYWGQGTTLTVSS VL: DIQMTQSPSSLSASLGERVSLTCRASQDIGNRLNWLQQEPDGTIKRLIYATSSLDSGVPKRFSGSRSGSDYSLTISSLESEDFVDYYCLQYASSPFTFGTGTKLEIK ?
**Result** 305
